B1: library; numbered along this chain (parent)
chain: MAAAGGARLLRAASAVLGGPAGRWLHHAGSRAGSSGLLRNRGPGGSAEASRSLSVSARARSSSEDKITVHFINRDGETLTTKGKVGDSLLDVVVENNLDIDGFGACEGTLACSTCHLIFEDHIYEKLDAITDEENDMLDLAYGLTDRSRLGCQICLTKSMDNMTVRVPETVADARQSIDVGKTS

Variants of: B1
Assay: scaled log2 fold change in cell abundance, elesclomol vs control (0 = silent mean, 1 = nonsense mean) (scaled log2 ratio); higher = higher viability under elesclomol (loss of FDX1 cuproptosis function);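 further: variant abundance is its share of total variant reads in each endpoint sample, from next-generation sequencing of the integrated ORF PCR-amplified out of genomic DNA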
Conditions: with ABC1 FDX1 KO; elesclomol 5 nM; glucose 10 mM; 14 days
readout: scaled log2 fold change
Lab note: record the figure alone, no unit after it.

   mutations                  readout  observed_result
0       G19V  scaled log2 fold change          -0.0119
1      L150M  scaled log2 fold change          -0.0616
2      I118W  scaled log2 fold change            0.135

Incoming: # lookup: scaled log2 fold change of V69E
Outgoing: 1.06

Incoming: # lookup: scaled log2 fold change of E95D
Outgoing: 0.126

Incoming: # lookup: scaled log2 fold change of A59T
Outgoing: 0.332

Incoming: # lookup: scaled log2 fold change of D101N
Outgoing: -0.201

Incoming: # lookup: scaled log2 fold change of G22F
Outgoing: 0.555

Incoming: # lookup: scaled log2 fold change of K66V
Outgoing: 0.0478

Incoming: # lookup: scaled log2 fold change of A47L
Outgoing: 0.835
